Test system: LXRb homodimer (NR concentration 270 nM)
Assay: PBM binding z-score (relative to random genomic background probes); higher = stronger binding; sequences stand for … in GC…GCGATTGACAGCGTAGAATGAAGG
endpoint label: PBM binding z-score
// print number alone

Please review the entries below; each comes with its answer.
[
  {
    "residue string": "TAGCCTAGGTCCGATCGGGCCAGTATACGCTATA",
    "system name": "LXRb homodimer (NR concentration 270 nM)",
    "readout value": -1.45
  },
  {
    "residue string": "GCTAGTTGGTCAGTAAAAGCTCACACACCGGTCG",
    "system name": "LXRb homodimer (NR concentration 270 nM)",
    "readout value": -0.539
  },
  {
    "residue string": "TAGCTTAGGTCATTGGGCCAGTATAGTACGCATC",
    "system name": "LXRb homodimer (NR concentration 270 nM)",
    "readout value": 0.994
  },
  {
    "residue string": "CGAACTGGGTCAGAACAGGACAGTGAAGGATGAT",
    "system name": "LXRb homodimer (NR concentration 270 nM)",
    "readout value": -0.721
  },
  {
    "residue string": "TCATATAGGTAAATGCTAAGTGAAAGTCCGATCT",
    "system name": "LXRb homodimer (NR concentration 270 nM)",
    "readout value": -0.0273
  },
  {
    "residue string": "GCTATTAGTTGAAAGGGTAACCGAATGATTCTCG",
    "system name": "LXRb homodimer (NR concentration 270 nM)",
    "readout value": -0.148
  },
  {
    "residue string": "AGAACGAGGGCAATGAGTAGATAGCACGGGTGGC",
    "system name": "LXRb homodimer (NR concentration 270 nM)",
    "readout value": -0.59
  },
  {
    "residue string": "CTCGCAAGGTCGGTTGAGGTGAGTATACGGATAA",
    "system name": "LXRb homodimer (NR concentration 270 nM)",
    "readout value": -0.72
  },
  {
    "residue string": "CTCGAAAGGTCGGTTGCGGTGAGTATACGGATAA",
    "system name": "LXRb homodimer (NR concentration 270 nM)",
    "readout value": 0.241
  },
  {
    "residue string": "TTACCAAGGCGAGCTGAGGTCGTTGATCCAACTC",
    "system name": "LXRb homodimer (NR concentration 270 nM)",
    "readout value": -0.87
  }
]

Item `CTACCAAGGTGAACAAGGTCTTTGATTACTATTC` has what recorded PBM binding z-score? -0.113

For `TAGCCTAGGTCATGCGGGGCAGTATAGTGTCGGC` then? 0.295

###

Test system: RARa homodimer (NR concentration 270 nM)
Experiment: PBM binding z-score (relative to random genomic background probes); higher = stronger binding; sequences stand for … in GC…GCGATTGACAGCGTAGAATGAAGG
endpoint label: PBM binding z-score
// print number alone

[
  {
    "residue string": "CTCGAAGGGTCGTGCTCAGGTGAGTATACCAAAC",
    "system name": "RARa homodimer (NR concentration 270 nM)",
    "readout value": -0.561
  },
  {
    "residue string": "CGTCCAAGTTCAGCAGGTCAGTGAAAGCGACGTG",
    "system name": "RARa homodimer (NR concentration 270 nM)",
    "readout value": 0.583
  },
  {
    "residue string": "CGTCCAAGGTCAGCCGGTCAGTGAAAGCGACGTG",
    "system name": "RARa homodimer (NR concentration 270 nM)",
    "readout value": 0.671
  },
  {
    "residue string": "AATATAGGGTCATCGTAGGCCAGAGTACGCACAG",
    "system name": "RARa homodimer (NR concentration 270 nM)",
    "readout value": 1.7
  },
  {
    "residue string": "GGAACGAGGGCCTTCGAGTTGATAGCATGGCGAT",
    "system name": "RARa homodimer (NR concentration 270 nM)",
    "readout value": -0.765
  },
  {
    "residue string": "ATCGAAAGGTCGACGAGGTGAGTGTACACCGTTT",
    "system name": "RARa homodimer (NR concentration 270 nM)",
    "readout value": 0.268
  },
  {
    "residue string": "CCTCGGAGGGCAACAGGAGGTCAGAGCTGCCAGA",
    "system name": "RARa homodimer (NR concentration 270 nM)",
    "readout value": 0.286
  },
  {
    "residue string": "AGTCAAAGTTCATCTAGGTAACTTAAGATATGCT",
    "system name": "RARa homodimer (NR concentration 270 nM)",
    "readout value": 1.85
  }
]

Item `CGAGCTAGGTCAAGGACAGTGAATCTCCGCACGC` has what recorded PBM binding z-score? 0.121

For `TAGCCTAGGTCATGCGGGCCTGTATAGTGTCGGC` then? -0.78

For `CAGCCTAGCTCAGGGCCAGTATAGGAGGAACGTT` then? -0.424

For `GCTCGGAGGACAAAGTCAGAGCTTTGTCCGTAGA` then? -1.22

For `ACAGACAGGTGATGAAGGGAACTCAGGCTATCAT` then? 0.0733

For `ATATGTAGCTTATCGGGTCATTCAGTTTGCGCAT` then? 0.765

For `TCATGTAGGTAAAAGGTGAAAGTCGGTGTGGTAA` then? 1.33

###

Test system: LXRb:RXRa (NR concentration 270 nM, RXRa partner concentration 90 nM)
Assay: PBM binding z-score (relative to random genomic background probes); higher = stronger binding; sequences stand for … in GC…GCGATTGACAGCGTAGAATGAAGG
endpoint label: PBM binding z-score
// print number alone

[
  {
    "residue string": "CGTCCAAGGTCAAAGGACAGTGAAGAGATGACGG",
    "system name": "LXRb:RXRa (NR concentration 270 nM, RXRa partner concentration 90 nM)",
    "readout value": 3.74
  },
  {
    "residue string": "CATCCAAGGTCAGAGAGGTCAGTGAATGCCGAGT",
    "system name": "LXRb:RXRa (NR concentration 270 nM, RXRa partner concentration 90 nM)",
    "readout value": 4.58
  },
  {
    "residue string": "CCTACTGGGCCGAAAAGGTCATTGATGCCGATAA",
    "system name": "LXRb:RXRa (NR concentration 270 nM, RXRa partner concentration 90 nM)",
    "readout value": 3.93
  },
  {
    "residue string": "CGAACTAGGTCATGGACAGGACAGTGAATAGTAA",
    "system name": "LXRb:RXRa (NR concentration 270 nM, RXRa partner concentration 90 nM)",
    "readout value": 1.81
  },
  {
    "residue string": "TCTTGTAGATCAAGCAGGTTAAGATAGCCTGAGT",
    "system name": "LXRb:RXRa (NR concentration 270 nM, RXRa partner concentration 90 nM)",
    "readout value": 0.188
  },
  {
    "residue string": "CCTTACGGGTCACTCCAGGCTATAGCATCGGAGT",
    "system name": "LXRb:RXRa (NR concentration 270 nM, RXRa partner concentration 90 nM)",
    "readout value": 2.91
  },
  {
    "residue string": "GCTATTAGTTGTAAGGGCAACCGAATGATTCTCG",
    "system name": "LXRb:RXRa (NR concentration 270 nM, RXRa partner concentration 90 nM)",
    "readout value": 0.38
  },
  {
    "residue string": "CGAACTAGGTGATCCAGGACAGTGAATACATTGA",
    "system name": "LXRb:RXRa (NR concentration 270 nM, RXRa partner concentration 90 nM)",
    "readout value": -0.189
  }
]

Item `ATCGAAAGGTCGAGGTGATTATAGAGAAAGGGAA` has what recorded PBM binding z-score? 2.64

For `CTCGAAAGGTCGTGCTCAGGTGAGTATACCAAAC` then? 3.45

For `ATATGTAGGTTACATCCCGGTCATTCAGGCTATG` then? 1.83

For `ACTAGCAGGCCAAGGGTCACTCTAGATTAGTCCG` then? 2.54

For `TGATATAGGTAAAGGTGAAAGTCGAACGATATGA` then? 1.47

For `CCTACTTGGTCAGGAGGTCACACACCGGATATGA` then? 3.39

For `ATCTCTAGGTAACAAGTTCAGTGATAGAGAGGAC` then? 0.524

For `TCTCGGAGGACACGAAGGACAGAGCTTTCCAGAG` then? -0.355

For `ACAGACAGGTGATCAAGGTAACTCAGGCTATCAT` then? -0.153

For `ACTATTAGTTGAGACGAAGGCAACCGATAGGTTG` then? -0.554

For `CGTCAAAGATCAACTAAGGTAACGTAAAGCACGC` then? 0.635

For `CTCGTAAGGTCGTGCTCAGGTGAGTATACCAAAC` then? 1.97

For `CTCGCAAGGTCGTGCTCAGGTGAGTATACCAAAC` then? 1.37

For `CCTACTGGGCCTCGAAAGGTCATTGATTCAGTGA` then? 3.74

For `CCAGACAGGTGAAAAGGTAACTCAGCCTCGATTA` then? 0.744

For `CCTAGTTGGTCAGGAGGTCACACATCGGATATGA` then? 3.2

For `TCTGCTAGGTCAATGATGGTCAGCTAATCTGCTA` then? 1.38

For `TCTTGTGGATCAGCAGGTTAAGAAAGCTGGCCAA` then? 0.0295
